- METHOD_DESCRIPTION: label from the status in PepcDB records
QUANTITY: protein production

MAYREKDTKKWTAQWFETNVMGEKKKRRKRGFETKREALEFERSKKLSNERSMDMKLSDFIEIYFSDKQNDLKDRTIKNKRYMMQQHIVPYFGNQMMSEIKASQIIQWQNEIQKKGYSDSYLRMIQNQLTSLFTHAAKIYDLPVNPCKKVKRMGNSDSRSLNFWTLDEYKQFIQTMEPGTRYYLMFEMLFWTGCRIGELLAITKADINFEKNQLSINKTYYRTGMQDIITEPKTKQSFRTIEIPEFLKEEIKEFVDGHYGMPDTERLFPVVQEAVQHKMKRQIELAGVKKIRVHDIRHSHVAYLIEKGVEPLLIRDRLGHKDIRITLNTYGHLYPNQQRKIANLLDNENGNAVTGLGEERDEC failed
MRLQELVLVKISLVFLWLIGFVFLQRSEENGFEEPNNGEELSWDDLEREAASNISSKRSHAERSHQHESFTKGDELSGDLYELWRQEQNSIAARLDKELKSRWELDELIEEQLSRYQSHYDNSMVSTFLKDVSNLVLPTWIPPHELAAVAWLGDWRPTSILDLVRILAAQNPSFSLSESSLRVLSQLLREIRIEEAVIDEEYAEIQATGVLYLPFSPLCNTRLHEEALRSVQELFGNIHKVISKAQRLRYKVLELVMKKLLNQTDTAEFVVAFAGIQDAIHQFGEQKKLRKIYPAVPSPLKGSGSSS not failed
TFYSVRMRASMNGSHEDGGKHISGGERLIPFHEMKHTVNALLEKGLSHSRGKPDFMQIQFEEVHESIKTIQPLPVHTNEVSCPEEGQKLARLLLEKEGVSRDVIEKAYEQIPEWSDVRGAVLFDIHTGKRMDQTKEKGVRVSRMDWPDANFEKWALHSHVPAHSRIKEALALASKVSRHPAVVAELCWSDDPDYITGYVAGKKMGYQRITAMKEYGTEEGCRVFFIDGSNDVNTYIHDLEKQPILIE not failed
MDHQFGYGVEVTGLSPSVTHNDLIDFFSFSGTIQDIDIVRSGEQACTAYVMFKDSYSQETAVLLTGATILDQRVCITRWGQHHEEFDFWNATSRGFEDESDSQHYAQRSEFNAGEAVTKAQEVVKIMLATGFVLGKDALSKAKAFDESHGVSAAAVARVSQLEQRIGLTDKIFTGLEAVRMTDQRYHVSDTAKSAVFATGRTAAAAATSVVNSSYFSSGALWLSGALERAAKAASDLGTRGSRQ failed
KKGRFRERYSTRILDALPDMLTVFDHNANIVELASSPTTNHVEGTTSDSIINSNVKDIVPEEAYESVRHNMDKVIHTGKSSTAEHSLMLDGVLHHYENRIFPLDDQYLLCMCRDVS failed
MLRPSVSLAFASSLPQQSVASRAVQRSPLPRRASGHGATEARGMPSHCFIRFCCIVLLAITGCSPAAQSRYAPERNFSDPKALALALAAEQGDAEEVRRLMKVEGVNPDTIFSKDGYPLLFWPIFTHSPAGLKAMLDNGADPNVALPYQTLDRGVRNNPNAMVWAAEQDDPIYLKMLLDHGGNPNTRNANNESLLFHAFIKQNKWDNIKLLVERGADINAVAGMGNSITAAYAIRGGFDFVYWLLQHGADPTIEFAYGNPVHLKDSGIIEAIFWHPGNPKDPQWQRQCQQWLLKRGYERPPLPENYRSMRKAFHFPSEEKEIPLL failed
MVKMAKMANKFKELDRTAEEKYKKGRISFRVGRFEDALAAYGEAASAWKEMADLLFDKGKETRGKEFLEKARDAKSCYGMALFKLERYEEALEIVDADLKLKPENPTRWSNRGFVLSALGRNEEALEAFEKALAFDPKSPKILTSQGIVYFKMGFLKKSLETFDRALATEPRKASDWACKIPRFSFFSRNKAPIMKPDNIETWYWKGNVLLELGEKEKALNSFRKALESDPDHLNSLLSGGDLLCEFAEYGEAFKCYVRALKLSPGNEAAEKGKEFCEAKINE failed
MSLVVCQPQINESFYQKDDMGGLSFLQSMSDITSIAQTKEDKAYVHPMEKRSVSKLNEKSLEMCTESLGTETGSESGDELSLLAFEATTTPRAPPRQLKPQEDTNLPDKTPPMSRNNSFPPPIKFVEDSKYNRMVRWLGEDGRIVVQAIRVSSPPSCFVSERGEGRLRLILTSESSLLSHNHEEEEEEETEEGIDEETSENLEGKSGNKKFSRFSRRCKENGREPKPMLTWKQQQFWVAT failed
MSRENNVQSTRAERKTLILALVAGMCSDALLSWLTMSSVPFSLFALIALVLSAQMLYQEYLAHPVAEEVPLVGLACFFVGAFGHSAFIKAQYPQEGSNFFSIVIVLLLIFWIGRKLGYIGKPR failed
MRRLNRKNNEALKKLNDRQRKVLYCIVREYIENKKPVSSQRVLEVSNIEFSSATIRNDMKKLEYLGYIYQPHTSAGRIPTDKGLRFYYEEMLKISKETSEADLAVETFKSMPLADPEKVLFLAGNLLARLTEGYVLIERPNTRDLKILRVMLIPVSEDYLIFSILTEFGVSKVTPIKTQERLNWEEIERQLNFLLRGRTVGEVLMGKIESLKGSGFLRLIESLIGETVERYLDAGLENLLKDETLTLEDIRNLLEEVKDQKFLESLVGEGITVRIGREIGRKKLEKFAVFSGKYFKGESPIGSVYLFTSKVTKYDRNHRVFEYILNRLSEYFTSTSRR not failed
MKRQYYIGISLFITIIILVLDQITKFIIASSMKVGDSFEVIPNFLNITSHRNDGAAWGILSGKMSFFFIITIIILVVLIVFYIKEAKNNLLMQIAISLLFAGALGNFIDRVLHGEVVDFVDTYIFGYNFPIFNVADSSLTIGVLLIIIALLTDMKKEE failed
